Known Emax of a selection of compounds
Biological target: cloned human 5-HT1A receptors (Homo sapiens, UniProt P08908)
Construct: expressed in transfected cells
Sequence (P08908 1-422): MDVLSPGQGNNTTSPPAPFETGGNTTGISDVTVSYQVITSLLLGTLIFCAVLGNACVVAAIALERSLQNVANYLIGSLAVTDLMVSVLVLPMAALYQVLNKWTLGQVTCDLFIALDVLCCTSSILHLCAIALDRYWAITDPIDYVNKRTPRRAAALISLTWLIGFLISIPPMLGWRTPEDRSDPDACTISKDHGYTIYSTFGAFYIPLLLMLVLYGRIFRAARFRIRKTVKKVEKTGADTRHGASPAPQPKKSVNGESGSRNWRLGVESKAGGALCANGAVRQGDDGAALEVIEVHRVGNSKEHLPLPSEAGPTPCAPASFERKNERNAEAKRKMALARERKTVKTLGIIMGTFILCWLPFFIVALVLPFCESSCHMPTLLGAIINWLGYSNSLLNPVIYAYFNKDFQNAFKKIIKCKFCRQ
Assay: 35S-GTPγS binding assay, 5-HT1A function
Assay type: biochemical
Details: maximum stimulatory effect, in brackets after EC50; read-out: 5-HT1A Function GTPγS (Emax)
Your answer is read as %, so omit the unit and give the number.

Which Emax is reported for this compound? NC(=O)c1ccc(F)c2c1CC(N(CCCc1c[nH]c3ccc(F)cc13)CC1CC1)CO2 (single isomer, unassigned; (+)) [Compound 5b] 18

// next record NC(=O)c1ccc(F)c2c1OCC(N(CCCCc1c[nH]c3ccc(F)cc13)CC1CC1)C2 (centres unmarked) [Compound 125] 63

// next record NC(=O)c1cccc2c1CC(N(CCCc1c[nH]c3ccc(F)cc13)CC1CC1)CO2 (centres unmarked) [Compound 148] 81

// next record CNC(=O)c1ccc(F)c2c1CC(NCCCCc1c[nH]c3ccc(F)cc13)CO2 (centres unmarked) [Compound 92] 50

// next record COc1cccc2c1CC(N(CCCc1c[nH]c3ccc(F)cc13)CC1CC1)CO2 (centres unmarked) [Compound 37] 88

// next record CNC(=O)c1ccc(F)c2c1CC(NCCCc1c[nH]c3ccc(F)cc13)CO2 (centres unmarked) [Compound 88] 94

// next record CCN(CCCc1csc2ccccc12)C1COc2cccc(OC)c2C1 (centres unmarked) [Compound 18] 100

// next record CCCN(C(C)CCc1c[nH]c2ccc(F)cc12)C1COc2c(F)ccc(C(N)=O)c2C1 (single isomer, unassigned) [Compound 12b] 73.5

// next record CCCN(CCCc1c[nH]c2ccccc12)C1CCc2cccc(OC)c2C1 (centres unmarked) [Compound 50] 90

// next record CCN(CCCc1coc2ccccc12)C1COc2cccc(OC)c2C1 (centres unmarked) [Compound 21] 98.5

// next record CCCN(CCc1c[nH]c2ccc(F)cc12)C1CCc2cccc(OC)c2C1 (centres unmarked) [Compound 48] 93
